System: HeLa
Assay: Antiproliferative activity against human HeLa cells assessed as reduction in cell viability
Format: functional, cell-based
pIC50: −log10 of the molar value.
test-readout: pIC50

Q) Form field: reported pIC50 of "O=c1cc(-c2ccc(O)c(-c3c(O)cc(O)c4c(=O)cc(-c5ccc(O)cc5)oc34)c2)oc2cc(O)cc(O)c12"
A) < 5.00

###

Biological target: Tyrosine-protein phosphatase non-receptor type 1 (Homo sapiens, UniProt P18031)
Sequence (P18031 whole entry): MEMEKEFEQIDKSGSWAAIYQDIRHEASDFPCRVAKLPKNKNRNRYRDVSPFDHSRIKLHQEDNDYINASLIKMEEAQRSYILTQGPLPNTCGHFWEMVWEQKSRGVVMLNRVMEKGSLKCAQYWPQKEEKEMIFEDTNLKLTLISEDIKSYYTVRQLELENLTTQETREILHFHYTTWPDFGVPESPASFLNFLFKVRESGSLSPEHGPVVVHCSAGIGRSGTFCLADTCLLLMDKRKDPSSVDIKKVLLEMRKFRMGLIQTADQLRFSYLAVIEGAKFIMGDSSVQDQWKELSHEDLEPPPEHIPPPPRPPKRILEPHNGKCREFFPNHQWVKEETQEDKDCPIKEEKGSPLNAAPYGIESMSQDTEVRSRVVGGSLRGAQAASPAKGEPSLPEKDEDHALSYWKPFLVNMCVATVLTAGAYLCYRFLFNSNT
Assay: Inhibition of recombinant human PTP1B (1 to 322 residues) expressed in Escherichia coli assessed as reduction in p-nitrophenol formation using p-nitrophenyl phosphate as substrate incubated for 30 mins by spectrophotometric method
test-readout: IC50 (µM)
Answers are plain numbers, in µM.

Q) Form field: reported IC50 of "CC(C)=CC[C@]12OC(C)(C)[C@H]3C[C@H](C=C4C(=O)c5c(O)cc(O)cc5O[C@@]431)C2=O"
A) 6.6

###

Tested on: A-431
Experiment: Antiproliferative activity against human A431 cells assessed as reduction in cell viability
Format: functional
Conditions: read-out: ED50 (the source's name)
pEC50: −log10 of the molar value.
test-readout: pEC50

Q) Form field: reported pEC50 of "COc1cc(-c2oc3cc(OC)c(OC)c(O)c3c(=O)c2OC)ccc1O"
A) 5.81 to 6.48

###

Tested on: HT-29
Test: Antiproliferative activity against human HT-29 cells assessed as reduction in cell viability after 3 days by SRB assay
Assay type: functional, cell-based
Settings: HT-29, 72 h
Consider the cut-off 3 µM. If the recorded IC50 is strictly smaller, the label is YES; if not, the label is NO.

compound	answer-label
CO[C@H]1[C@H]2C(=O)c3c(O)c4c(c(CC=C(C)C)c3O[C@@]23[C@@H]2C[C@H]1C(=O)[C@]3(C/C=C(/C)C(=O)O)OC2(C)C)OC(C)(C)C=C4	YES
COc1cc2c(O[C@@H]3OC[C@H](O)[C@H](O)[C@H]3OC)c3c(c(-c4ccc5c(c4)OCO5)c2cc1OC)C(=O)OC3	YES
CC(C)=CCc1c(O)c(CC=C(C)C)c2c(c1O)C(=O)C1=C[C@H]3C[C@@H]4C(C)(C)O[C@@](C/C=C(/C)C(=O)O)(C3=O)[C@@]14O2	NO
C=C(C)C(O)Cc1c2c(c(O)c3c1O[C@]14C(=C[C@H]5C[C@@H]1C(C)(C)O[C@@]4(C/C=C(\C)C(=O)O)C5=O)C3=O)C=CC(C)(C)O2 (stereo partly specified)	YES
O=C1c2c(O)cc(O)cc2O[C@@H](c2ccc(O)cc2)[C@@H]1c1c(O)cc(O)c2c(=O)cc(-c3ccc(O)c(O)c3)oc12	NO

Q) Does the reported IC50 of the following compound sit strictly below 3 µM? "CC(C)=CCc1c2c(c(O)c3c1O[C@]14C(=C[C@H]5C[C@@H]1C(C)(C)O[C@@]4(C/C=C(/C)C(=O)O)C5=O)C3=O)C=CC(C)(C)O2"
A) YES

###

Molecular target: Papain (Carica papaya, UniProt P00784)
Sequence (P00784 whole entry): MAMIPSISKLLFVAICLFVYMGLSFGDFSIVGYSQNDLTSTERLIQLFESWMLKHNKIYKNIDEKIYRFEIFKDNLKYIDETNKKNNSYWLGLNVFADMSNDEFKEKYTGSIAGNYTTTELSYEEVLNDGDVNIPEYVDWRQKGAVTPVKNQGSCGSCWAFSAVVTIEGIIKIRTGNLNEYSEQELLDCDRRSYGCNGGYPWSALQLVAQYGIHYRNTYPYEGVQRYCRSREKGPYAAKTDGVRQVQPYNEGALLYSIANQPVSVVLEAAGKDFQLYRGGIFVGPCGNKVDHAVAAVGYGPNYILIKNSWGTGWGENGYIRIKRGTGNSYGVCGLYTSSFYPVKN
test-readout: IC50

Q) Form field: reported IC50 of CCCC(=O)Oc1ccc(C2Oc3cc(OC(=O)CCC)cc(O)c3C(=O)C2c2c(OC(=O)CCC)cc(O)c3c(=O)cc(-c4ccc(OC(=O)CCC)c(OC(=O)CCC)c4)oc23)cc1 (racemic)
A) 15.7 µM

###

Test system: SNB-19
Experiment: Antiproliferative activity against human SNB19 cells
Format: functional, cell-based
test-readout: IC50
The reply should consist of the numeric value with the unit placed after it.

smiles-representation	IC50
C=C(C)[C@@]1(O)O[C@H]2C[C@@]3(C)OC(=CC3=O)/C(C)=C\[C@H]3OC(=O)[C@@]1(C)[C@@H]23	100 µM

Now examine the next entry.
Q) Form field: reported IC50 of "C=C1C(=O)O[C@@H]2/C=C(/C)C3=CC(=O)[C@@](C)(C[C@H](OC(=O)/C(C)=C\C)[C@@H]12)O3"
A) 13.8 µM

###

Tested on: NCI-H1650
Assay: Antiproliferative activity against human NCI-H1650 cells assessed as reduction in cell viability after 72 hrs by CellTiter-Glo assay
Type: functional, cell-based
Conditions: NCI-H1650, 72 h
test-readout: pIC50
One number for each entry, as −log10 of the molar value.

Some solved cases for reference:
smiles-representation	pIC50
CC(C)=CCC[C@@]1(C)C=Cc2c(O)c3c(c(C/C=C(\C)CO)c2O1)O[C@]12C(=C[C@H]4C[C@@H]1C(C)(C)O[C@@]2(C/C=C(/C)C(=O)O)C4=O)C3=O	6.21
CC(C)=CCC[C@@]1(C)C=Cc2c(O)c3c(c(CCC(C)(C)O)c2O1)O[C@]12C(=C[C@H]4C[C@@H]1C(C)(C)O[C@@]2(C/C=C(/C)C(=O)O)C4=O)C3=O	6.02
CC(C)=CCC/C(C)=C/Cc1c(O)c(CC=C(C)C)c2c(c1O)C(=O)C1=C[C@@H]3C[C@H]4C(C)(C)O[C@@](C/C=C(\C)C=O)(C3=O)[C@@]14O2	6.01
CC(C)=CCC/C(C)=C/Cc1c(O)c(CC=C(C)C)c2c(c1O)C(=O)C1=C[C@@H]3C[C@H]4C(C)(C)O[C@@](C/C=C(\C)C(=O)O)(C3=O)[C@@]14O2	5.85

Now examine the next entry.
Q) Form field: reported pIC50 of "CC(C)=CCC/C(C)=C/Cc1c(O)c(CC=C(C)C)c2c(c1O)C(=O)C1=C[C@@H]3C[C@H]4C(C)(C)O[C@@](CC=C(C)C)(C3=O)[C@@]14O2"
A) 5.96

###

System: HepG2
Experiment: Antiproliferative activity against human HepG2 assessed as reduction in cell viability incubated for 48 hrs by AlamarBlue assay
Assay type: functional, cell-based
Details: HepG2, 48 h
For each record, write down the corresponding pIC50.
One number for each entry, as −log10 of the molar value.

molecule	experimental-target	test-readout	measured-number
C/C1=C\CC[C@@]2(C)O[C@H]2[C@H]2OC(=O)[C@@H](CNC(Cc3ccc(N(CCCl)CCCl)cc3)C(=O)O)[C@@H]2CC1 (stereo partly drawn)	HepG2	pIC50	6.59

Now examine the next entry.
Q) Form field: reported pIC50 of C/C1=C\CC[C@@]2(C)O[C@H]2[C@H]2OC(=O)[C@@H](CNc3ccn(C4OC(CO)[C@H](O)[C@@H]4O)c(=O)n3)[C@@H]2CC1 (stereo partly drawn)
A) 6.62

###

Test system: P388
Assay: Antiproliferative activity against mouse P388 cells assessed as reduction in cell viability
Assay type: functional, cell-based
test-readout: IC50 (µM)
One number for each entry, in µM.

Q) Form field: reported IC50 of CC(C)=CCc1c(-c2cc(O)c(O)cc2O)oc2c3c(cc(O)c2c1=O)OC(C)(C)C=C3 [ARTONIN E]
A) 0.14

###

System: HT-29
Assay: Antiproliferative activity against human HT-29 cells assessed as reduction in cell viability after 3 days by SRB assay
Assay type: functional, cell-based
Details: HT-29, 72 h
test-readout: IC50 (nM)
Give bare numbers, in nM.

Q) Form field: reported IC50 of CC(C)=CCc1c2c(c(O)c3c1O[C@]14C(=C[C@H]5C[C@@H]1C(C)(C)O[C@@]4(C/C=C(/C)C(=O)O)C5=O)C3=O)CC(O)C(C)(C)O2 (single isomer, unassigned; (-))
A) 2900

###

Test system: HT
Test: Antiproliferative activity against human HT cells assessed as reduction in cell viability
Assay type: functional
Details: read-out: ED50 (the source's name)
test-readout: EC50

Q) Form field: reported EC50 of "COc1cc(-c2oc3cc(OC)c(OC)c(O)c3c(=O)c2OC)ccc1O"
A) 330 to 1560 nM

###

Biological target: Trypsin (Homo sapiens, UniProt P07477+P07478+P35030)
Assay: Inhibition of trypsin (unknown origin) using Z-FR-MCA as substrate by spectrofluorimetric method
Assay type: protein assay
For each record, write down the corresponding IC50.
One number for each entry, in µM.

compound	measure-unit	IC50
COc1ccc(C2Oc3cc(OC)cc(O)c3C(=O)C2c2c(OC)cc(O)c3c(=O)cc(-c4ccc(OC)c(OC)c4)oc23)cc1 (racemic)	µM	1.6
O=C1c2c(O)cc(O)cc2OC(c2ccc(O)cc2)C1c1c(O)cc(O)c2c(=O)cc(-c3ccc(O)c(O)c3)oc12 (racemic)	µM	3.8
CC(=O)Oc1ccc(C2Oc3cc(OC(C)=O)cc(O)c3C(=O)C2c2c(OC(C)=O)cc(O)c3c(=O)cc(-c4ccc(OC(C)=O)c(OC(C)=O)c4)oc23)cc1 (racemic)	µM	21.1

Now examine the next entry.
Q) Please tell me: IC50 of CCCC(=O)Oc1ccc(C2Oc3cc(OC(=O)CCC)cc(O)c3C(=O)C2c2c(OC(=O)CCC)cc(O)c3c(=O)cc(-c4ccc(OC(=O)CCC)c(OC(=O)CCC)c4)oc23)cc1 (racemic) , system Trypsin (Homo sapiens, UniProt P07477+P07478+P35030)?
A) 19.8
